# tgt: Cathepsin E (Homo sapiens, UniProt P14091)
# Sequence (P14091 whole entry): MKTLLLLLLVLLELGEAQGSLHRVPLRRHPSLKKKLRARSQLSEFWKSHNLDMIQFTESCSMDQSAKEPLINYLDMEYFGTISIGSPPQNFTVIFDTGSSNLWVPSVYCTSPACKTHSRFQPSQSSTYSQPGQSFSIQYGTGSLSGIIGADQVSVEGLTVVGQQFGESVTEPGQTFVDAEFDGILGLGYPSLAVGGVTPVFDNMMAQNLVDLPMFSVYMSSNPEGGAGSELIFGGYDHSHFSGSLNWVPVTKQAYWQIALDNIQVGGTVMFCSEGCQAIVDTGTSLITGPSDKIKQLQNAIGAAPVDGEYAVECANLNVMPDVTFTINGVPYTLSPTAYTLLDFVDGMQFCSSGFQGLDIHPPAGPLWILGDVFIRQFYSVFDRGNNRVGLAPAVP
parameterMeasured: IC50

compoundStructureString	result
CC(=O)N[C@H](C(=O)N[C@@H](Cc1ccccc1)[C@@H](O)CN(CC1CCCCC1)NC(=O)[C@@H](NC(C)=O)C(C)C)C(C)C	2000 nM

----------
# System: Human immunodeficiency virus 1
# assayMethodText: Antiviral activity against HIV-1 LAV virus infected MT-2 cells with reference to AZT (ED90=0.3 uM)
# Format: functional, MT2

compoundStructureString	ED90
CC(=O)N[C@H](C(=O)N[C@@H](Cc1ccccc1)[C@@H](O)CN(Cc1ccccc1)NC(=O)[C@H](NC(C)=O)C(C)C)C(C)C	10 µM
CC(C)[C@H](NC(=O)OCc1ccccc1)C(=O)N[C@@H](Cc1ccccc1)[C@@H](O)CN(CC1CCCCC1)NC(=O)[C@@H](NC(=O)OCc1ccccc1)C(C)C	1 µM
CC(=O)N[C@H](C(=O)N[C@@H](Cc1ccccc1)[C@@H](O)CN(CC1CCCCC1)NC(=O)[C@@H](NC(C)=O)C(C)C)C(C)C	1 µM
CC(=O)N[C@H](C(=O)N[C@@H](Cc1ccccc1)[C@@H](O)CN(CC(C)C)NC(=O)[C@@H](NC(C)=O)C(C)C)C(C)C	>1 µM
CC(=O)N[C@H](C(=O)N[C@@H](Cc1ccccc1)[C@@H](O)CN(Cc1ccc(F)cc1)NC(=O)[C@@H](NC(C)=O)C(C)C)C(C)C	10 µM
CC(C)[C@H](NC(=O)OCc1ccccc1)C(=O)N[C@@H](Cc1ccccc1)[C@@H](O)CN(Cc1ccc(C#N)cc1)NC(=O)[C@@H](NC(=O)OCc1ccccc1)C(C)C	0.1 µM

----------
# Test system: Human immunodeficiency virus 1
# assayMethodText: Antiviral activity against HIV-1 LAV virus infected MT-2 cells with reference to AZT (ED90=0.3 uM)
# Type: functional, MT2
parameterMeasured: ED90 (nM)

compoundStructureString	parameterMeasured	valueComparator	quantitativeResult
CC(C)CN(C[C@H](O)[C@H](Cc1ccccc1)NC(=O)[C@@H](NC(=O)OCc1ccccc1)C(C)C)NC(=O)[C@@H](NC(=O)OCc1ccccc1)C(C)C	ED90	>	1000
CC(C)[C@H](NC(=O)OCc1ccccc1)C(=O)N[C@@H](Cc1ccccc1)[C@@H](O)CN(Cc1ccc(F)cc1)NC(=O)[C@@H](NC(=O)OCc1ccccc1)C(C)C	ED90	=	1000
CC(=O)N[C@H](C(=O)N[C@@H](Cc1ccccc1)[C@@H](O)CN(Cc1ccc(C#N)cc1)NC(=O)[C@@H](NC(C)=O)C(C)C)C(C)C	ED90	>	10000
CC(C)[C@H](NC(=O)OCc1ccccc1)C(=O)N[C@@H](Cc1ccccc1)[C@@H](O)CN(Cc1ccccc1)NC(=O)[C@H](NC(=O)OCc1ccccc1)C(C)C	ED90	=	100

Source: ChEMBL document CHEMBL1127172
